From: patent US20090110727A1

experiment: Osmotic pressure of saturated solutions by vapor pressure osmometer; type: physicochemical; details: saturated solutions at 37° C., in water
We begin with a simple list: items and their reported Osmotic Pressure in atm..
ASSAY_READOUT: Osmotic Pressure in atm.

MOLECULE: O.O.O.O.O.O.O.O.O.O.O.O.O=P([O-])([O-])O.[Na+].[Na+] [Sodium Phosphate Dibasic 12 H2O]
ASSAY_READOUT: Osmotic Pressure in atm.
RESULT: 31 atm

MOLECULE: O=P([O-])([O-])O.[Na+].[Na+] [Sodium Phosphate Dibasic Anhydrous]
ASSAY_READOUT: Osmotic Pressure in atm.
RESULT: 29 atm

MOLECULE: O.O.O.O.O.O.O.O=P([O-])([O-])O.[Na+].[Na+] [Sodium Phosphate Dibasic 7 H2O]
ASSAY_READOUT: Osmotic Pressure in atm.
RESULT: 31 atm

MOLECULE: [Cl-].[K+] [Potassium Chloride]
ASSAY_READOUT: Osmotic Pressure in atm.
RESULT: 245 atm

MOLECULE: O.O.O.O.O.O.O.O.O.O.O.O.O=P([O-])([O-])[O-].[Na+].[Na+].[Na+] [Sodium Phosphate Tribasic 12 H2O]
ASSAY_READOUT: Osmotic Pressure in atm.
RESULT: 36 atm

MOLECULE: OC[C@@H](O)[C@@H](O)[C@H](O)[C@H](O)CO
ASSAY_READOUT: Osmotic Pressure in atm.
RESULT: 38 atm

MOLECULE: O=C(CO)[C@@H](O)[C@H](O)[C@H](O)CO
ASSAY_READOUT: Osmotic Pressure in atm.
RESULT: 355 atm

MOLECULE: O=S(=O)([O-])[O-].[K+].[K+] [Potassium Sulfate]
ASSAY_READOUT: Osmotic Pressure in atm.
RESULT: 39 atm

MOLECULE: [Cl-].[Na+] [Sodium Chloride]
ASSAY_READOUT: Osmotic Pressure in atm.
RESULT: 356 atm
